# Assay info: Volume of distribution at steady state in Sprague-Dawley rat at 1 mg/kg, iv measured up to 24 hrs by LC-MS/MS analysis
# Type: ADME, organism-based
# Experimental conditions: in vivo, read-out: Vdss
Measure name: Vd (L/kg)

> print(dat)
                                   molecule  measured.number
1  CCCOc1ccc(NC(=O)CN2CCN(C)CC2)cc1-c1nc(CC)c(CC)c(=O)[nH]1             4.97

###

# Assay info: AUC (0 to t) in Sprague-Dawley rat at 1 mg/kg, iv measured up to 24 hrs by LC-MS/MS analysis
# Format: ADME, organism-based
# Parameters: time < 24 hr, dose 1 mg/kg, route intravenous
# Experimental conditions: in vivo
Measure name: AUCt (ng·h/mL)

> print(dat)
                                   molecule  measure.name  measured.number
1  CCCOc1ccc(NC(=O)CN2CCN(C)CC2)cc1-c1nc(CC)c(CC)c(=O)[nH]1          AUCt              403

###

# Assay info: Clearance in Sprague-Dawley rat at 1 mg/kg, iv measured up to 24 hrs by LC-MS/MS analysis
# Format: ADME, organism-based
# Experimental conditions: in vivo
Measure name: clearance (mL/min/kg)

> print(dat)
                                   molecule  measure.name  measured.number
1  CCCOc1ccc(NC(=O)CN2CCN(C)CC2)cc1-c1nc(CC)c(CC)c(=O)[nH]1     clearance             37.7

###

# Assay info: Oral bioavailability in Sprague-Dawley rat at 1 mg/kg measured up to 24 hrs by LC-MS/MS analysis
# Assay type: ADME, organism-based
# Experimental conditions: in vivo
Measure name: bioavailability (%)

> print(dat)
                                   molecule  measured.number
1  CCCOc1ccc(NC(=O)CN2CCN(C)CC2)cc1-c1nc(CC)c(CC)c(=O)[nH]1             66.4

###

# Tested system: Dual 3',5'-cyclic-AMP and -GMP phosphodiesterase 11A (Homo sapiens, UniProt Q9HCR9)
# Sequence (Q9HCR9 whole entry): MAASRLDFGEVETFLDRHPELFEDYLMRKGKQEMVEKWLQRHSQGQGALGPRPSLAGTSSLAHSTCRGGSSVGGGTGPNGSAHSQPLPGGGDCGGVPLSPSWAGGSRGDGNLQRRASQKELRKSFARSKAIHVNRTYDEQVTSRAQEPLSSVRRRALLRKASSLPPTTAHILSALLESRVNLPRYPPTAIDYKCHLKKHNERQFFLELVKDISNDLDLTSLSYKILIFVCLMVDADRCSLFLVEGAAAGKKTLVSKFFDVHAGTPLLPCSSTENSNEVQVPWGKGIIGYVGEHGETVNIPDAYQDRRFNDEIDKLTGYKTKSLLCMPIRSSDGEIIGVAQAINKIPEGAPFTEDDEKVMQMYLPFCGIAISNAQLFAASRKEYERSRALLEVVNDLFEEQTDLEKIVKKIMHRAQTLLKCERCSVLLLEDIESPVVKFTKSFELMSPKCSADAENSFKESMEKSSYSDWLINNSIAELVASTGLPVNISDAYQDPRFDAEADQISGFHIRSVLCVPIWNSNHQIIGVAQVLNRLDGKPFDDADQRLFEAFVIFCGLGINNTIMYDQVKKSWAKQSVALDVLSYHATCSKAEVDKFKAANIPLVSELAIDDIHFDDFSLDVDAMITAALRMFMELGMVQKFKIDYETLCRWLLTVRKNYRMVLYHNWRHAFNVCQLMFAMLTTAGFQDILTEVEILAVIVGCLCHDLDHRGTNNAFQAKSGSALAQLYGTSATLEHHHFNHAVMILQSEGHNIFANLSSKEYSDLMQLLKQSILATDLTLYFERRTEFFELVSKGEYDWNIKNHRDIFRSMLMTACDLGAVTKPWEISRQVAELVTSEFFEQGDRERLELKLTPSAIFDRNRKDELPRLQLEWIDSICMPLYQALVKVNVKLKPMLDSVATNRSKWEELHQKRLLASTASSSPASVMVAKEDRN
# Assay info: Inhibition of N-terminal GST-tagged human PDE11A4 expressed in baculovirus infected sf9 cells using [3H]cGMP as substrate measured after 30 mins by scintillation proximity assay
Measure name: IC50

> print(dat)
                                   molecule                             tested.system  result
1  CCCOc1ccc(NC(=O)CN2CCN(C)CC2)cc1-c1nc(CC)c(CC)c(=O)[nH]1  Dual 3',5'-cyclic-AMP and -GMP phosphodiesterase 11A (Homo sapiens, UniProt Q9HCR9)  998 nM

###

# Assay info: Oral bioavailability in Sprague-Dawley rat at 1 mg/kg measured up to 24 hrs by HPLC analysis
# Type: ADME, organism-based
# Experimental conditions: in vivo
Measure name: bioavailability (%)

> print(dat)
                                   molecule  measured.number
1  CCCc1nn(C)c2c(=O)[nH]c(-c3cc(S(=O)(=O)N4CCN(C)CC4)ccc3OCC)nc12               34

###

# Assay info: MRT in Beagle dog at 0.5 mg/kg, iv measured up to 24 hrs by LC-MS/MS analysis
# Assay type: ADME, organism-based, Canis lupus familiaris
# Experimental conditions: in vivo
Measure name: MRT (h)

> print(dat)
                                   molecule  units.label  measured.number
1  CCCOc1ccc(NC(=O)CN2CCN(C)CC2)cc1-c1nc(CC)c(CC)c(=O)[nH]1            h             6.07
